target: Hemoglobin subunit beta (Homo sapiens) (UniProt P68871); assay: Percent modification of human Hemoglobin beta (100 uM) after 3h of incubation
Sequence (P68871 2-147 limits assumed): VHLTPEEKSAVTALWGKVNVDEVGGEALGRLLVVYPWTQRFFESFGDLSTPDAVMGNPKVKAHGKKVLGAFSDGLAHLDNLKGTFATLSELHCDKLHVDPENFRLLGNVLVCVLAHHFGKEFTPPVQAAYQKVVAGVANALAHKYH
Classes (Modification): class A: < 10%; class B: ≥ 10% and < 20%; class C: ≥ 20%

Category of `N#CSc1ccc(CC(=O)O)cc1` :
class B

Assign a bin to `N#CSCCCN1CCCC1=O`
class C

For this molecule, which bin applies? `N#CSCc1ccncc1`
class C

Place this molecule in its band: `N#CSCCc1c[nH]c2ccccc12`
class C

Which class does `CCN(CC)CCCSC#N` fall in?
class C

Looking at N#CSC1CCC(O)CC1 (configuration not stated) , which class would you pick?
class B

Consider `N#CSc1ccc(C(=O)O)c(O)c1` . To which Modification class does it belong?
class A

Which category fits this record: `COC(CSC#N)OC`
class C

Note: place this molecule into its band. Item: `N#CSCCCn1ccnc1`
class B

Class for `N#CCCSC#N` ?
class C

Which category does the recorded Modification put `N#CSc1ccc(O)cc1` in?
class A

###

target: Hemoglobin subunit alpha (Homo sapiens); assay: Percent modification of human Hemoglobin alpha (100 uM) after 3h of incubation
MEASUREMENT LABEL: Modification (%)
Lab book: enter the figure in %, no units written.

So what Modification did `N#CSc1ccc(CCO)cc1` get with Hemoglobin subunit alpha (Homo sapiens)?
66

Param readout = Modification; param system = Hemoglobin subunit alpha (Homo sapiens); param query = `N#CSc1ccc(O)cc1` ; response: value
51

Form field: Modification recorded for `CN(C)c1ccc(SC#N)cc1` with Hemoglobin subunit alpha (Homo sapiens) (enter value)
48

Notebook entry, Hemoglobin subunit alpha (Homo sapiens) assay: Modification of `CCN(CC)CCNC(=O)c1ccc(SC#N)cc1` = ?
40

// provenance: ChEMBL document CHEMBL1136727
